Target: human TLR7 (hTLR7) (Homo sapiens, UniProt Q9NYK1)
Sequence (Q9NYK1 27-1049): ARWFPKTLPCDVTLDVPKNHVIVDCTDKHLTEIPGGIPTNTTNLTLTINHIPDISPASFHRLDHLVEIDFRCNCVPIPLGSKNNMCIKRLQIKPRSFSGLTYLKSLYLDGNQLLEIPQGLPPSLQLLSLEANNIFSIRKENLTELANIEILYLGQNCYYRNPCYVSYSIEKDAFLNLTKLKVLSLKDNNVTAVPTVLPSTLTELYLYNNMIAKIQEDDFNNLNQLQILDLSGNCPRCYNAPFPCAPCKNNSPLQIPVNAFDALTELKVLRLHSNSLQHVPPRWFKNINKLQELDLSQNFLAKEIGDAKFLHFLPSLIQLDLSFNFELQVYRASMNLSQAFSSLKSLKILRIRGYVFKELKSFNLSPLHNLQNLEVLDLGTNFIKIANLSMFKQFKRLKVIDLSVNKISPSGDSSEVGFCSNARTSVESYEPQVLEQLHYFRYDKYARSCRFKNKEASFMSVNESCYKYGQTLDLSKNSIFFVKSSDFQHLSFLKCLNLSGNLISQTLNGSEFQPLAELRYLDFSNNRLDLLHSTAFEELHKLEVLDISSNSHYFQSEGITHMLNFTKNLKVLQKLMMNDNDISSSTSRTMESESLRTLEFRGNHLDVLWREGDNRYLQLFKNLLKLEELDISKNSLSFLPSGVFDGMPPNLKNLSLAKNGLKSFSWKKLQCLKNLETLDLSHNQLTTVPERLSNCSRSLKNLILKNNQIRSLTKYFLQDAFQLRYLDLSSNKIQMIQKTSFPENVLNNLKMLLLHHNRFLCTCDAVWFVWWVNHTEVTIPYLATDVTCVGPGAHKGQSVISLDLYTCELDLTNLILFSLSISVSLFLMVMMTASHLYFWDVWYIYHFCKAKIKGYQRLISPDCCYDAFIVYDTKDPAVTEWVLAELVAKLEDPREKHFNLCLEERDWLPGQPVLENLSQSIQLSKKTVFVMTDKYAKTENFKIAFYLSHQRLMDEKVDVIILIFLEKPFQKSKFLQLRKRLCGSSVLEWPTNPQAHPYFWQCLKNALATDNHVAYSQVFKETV
Experiment: Human TLR7 agonist activity assay (HEK-Blue TLR7 SEAP reporter)
Details: HEK-Blue TLR7 cells, 18 h incubation, Quanti-Blue, OD 620 nm, some values average of multiple measurements
property.name: EC50 (nM)

• CCCCN(CCO)c1nc(N)nc2cn(Cc3ccc(CNC4CCOCC4)c4nccnc34)nc12 [Compound 206] = 1900
• CCCCN(CCO)c1nc(N)nc2cn(Cc3c(F)cc(C4CCC(N(C)C5CC6(COC6)C5)CC4)cc3OC)nc12 (centres unmarked) [Compound 195] = 541
• CCCCN(CCO)c1nc(N)nc2cn(Cc3ccc(CN4CCCNCC4)cc3OC)nc12 [Compound 55] = 349
• CCCCN(CCO)c1nc(N)nc2cn(Cc3ccc(CN[C@@H]4COC[C@@H]4F)cc3OC)nc12 [Compound 54] = 1330

P: CCCCN(CCO)c1nc(N)nc2cn(Cc3c(F)cc(C4CCN(C(C)C)CC4)cc3OC)nc12 [Compound 40]
Q: CCCCN(CCO)c1nc(N)nc2cn(Cc3c(F)cc(C4CCN(CC(N)=O)CC4)cc3OC)nc12 [Compound 41]
R: CCCCN(CCO)c1nc(N)nc2cn(Cc3ccc(CNCC(C)(C)O)cc3OC)nc12 [Compound 9]
S: CCCCN(CCO)c1nc(N)nc2cn(Cc3c(F)cc(CN[C@H]4CC[C@H](O)CC4)cc3OC)nc12 [Compound 93]
INPUT: Order the 4 compounds from highest to lowest EC50. Response field: labels, in requested order.
OUTPUT: S, R, P, Q

###

Target: human TLR7 (hTLR7) (Homo sapiens)
Construct: host or cells: HEK-Blue TLR7 cells (engineered human embryonic kidney cells)
Experiment: Human TLR7 agonist activity assay (HEK-Blue TLR7 SEAP reporter)
Assay type: cell-based
Settings: HEK-Blue TLR7 cells, 18 h incubation, Quanti-Blue, OD 620 nm, some values average of multiple measurements
property.name: EC50 (nM)

The following compounds have reported results that may help.
• CCCCN(CCO)c1nc(N)nc2cn(Cc3ccc(CNC4CCC4)c4cn[nH]c34)nc12 = 2380
• CCCCN(CCO)c1nc(N)nc2cn(Cc3ccc(CNC4CC(F)(F)C4)c4cccnc34)nc12 = 2110
• CCCCN(CCO)c1nc(N)nc2cn(Cc3ccc(CNC4CCOC4(C)C)cc3OC)nc12 (stereo not shown) = 615
• CCCCN(CCO)c1nc(N)nc2cn(Cc3ccc(CN4CCN(C)CC4)cc3OC)nc12 = 733
• CCCCN(CCO)c1nc(N)nc2cn(Cc3c(F)cc(C4=CCC(NC5CCOCC5)CC4)cc3OC)nc12 (stereo not shown) = 563

a: CCCCN(CCO)c1nc(N)nc2cn(Cc3ccc(CNC4CCOC(C)(C)C4)cc3OC)nc12 (single isomer, unassigned) [Compound 112]
b: CCCCN(CCO)c1nc(N)nc2cn(Cc3ccc(CN4CCN(C5CCC5)CC4)c4cccnc34)nc12
INPUT: Lab note: check whether a or b has the lower measured EC50. Your answer should be the label attached to the chosen record.
OUTPUT: b
(b: 326 nM, a: 585 nM)

###

Molecular target: human TLR8 (hTLR8) (Homo sapiens, UniProt Q9NR97)
Sequence (Q9NR97 27-1041): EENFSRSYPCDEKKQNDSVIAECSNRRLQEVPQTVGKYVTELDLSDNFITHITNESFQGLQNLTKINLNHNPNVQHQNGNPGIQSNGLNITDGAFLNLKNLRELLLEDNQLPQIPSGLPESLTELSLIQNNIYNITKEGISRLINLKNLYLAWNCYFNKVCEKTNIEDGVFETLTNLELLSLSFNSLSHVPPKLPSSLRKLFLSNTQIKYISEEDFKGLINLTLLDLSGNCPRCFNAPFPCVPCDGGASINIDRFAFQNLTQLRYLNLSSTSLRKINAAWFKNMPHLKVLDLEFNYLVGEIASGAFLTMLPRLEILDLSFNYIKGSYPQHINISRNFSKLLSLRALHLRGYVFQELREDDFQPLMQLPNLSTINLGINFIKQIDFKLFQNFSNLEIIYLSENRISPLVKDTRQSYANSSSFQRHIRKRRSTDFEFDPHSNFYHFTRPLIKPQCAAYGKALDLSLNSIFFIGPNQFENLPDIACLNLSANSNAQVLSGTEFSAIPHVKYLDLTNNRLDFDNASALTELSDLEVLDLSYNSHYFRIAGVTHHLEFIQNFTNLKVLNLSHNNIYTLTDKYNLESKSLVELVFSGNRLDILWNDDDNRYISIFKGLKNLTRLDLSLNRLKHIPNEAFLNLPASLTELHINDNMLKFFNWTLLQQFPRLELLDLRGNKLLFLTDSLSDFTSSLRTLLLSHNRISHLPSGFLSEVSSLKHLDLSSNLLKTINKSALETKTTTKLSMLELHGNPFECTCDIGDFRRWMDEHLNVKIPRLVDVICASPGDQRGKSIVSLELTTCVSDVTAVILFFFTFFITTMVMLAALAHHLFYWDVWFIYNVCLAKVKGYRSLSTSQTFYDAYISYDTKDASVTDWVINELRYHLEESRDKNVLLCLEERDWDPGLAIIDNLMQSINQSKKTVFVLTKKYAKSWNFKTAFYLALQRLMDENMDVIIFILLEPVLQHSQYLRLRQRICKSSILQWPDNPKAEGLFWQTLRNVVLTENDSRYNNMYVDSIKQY
Experiment: Human TLR8 agonist activity assay (measured in a similar manner)
Conditions: HEK-Blue TLR cells, SEAP reporter, measured in a similar manner to TLR7; some values average of multiple measurements
pEC50: −log10 of the molar value.
property.name: pEC50

The following molecules have reported results that may help.
* CCCCN(CCO)c1nc(N)nc2cn(Cc3ccc(CNC4(COC)CCOCC4)cc3OC)nc12 [Compound 165] | 6.34
* CCCCN(CCO)c1nc(N)nc2cn(Cc3ccc(CNC4(C)CCC4)cc3C(F)F)nc12 [Compound 167] | 5.79

A: CCCCN(CCO)c1nc(N)nc2cn(Cc3ccc(CN[C@H]4C[C@H](OCC)C4)cc3OC)nc12 [Compound 101]
B: CCCCN(CCO)c1nc(N)nc2cn(Cc3cc(OC)c(C4CCN(C(C)C)CC4)cc3OC)nc12 [Compound 110]
INPUT: Lab note: check whether A or B has the lower measured pEC50. Your answer should be the label attached to the chosen record.
OUTPUT: A

###

Biological target: human TLR7 (hTLR7) (Homo sapiens)
Assay: Human TLR7 agonist activity assay (HEK-Blue TLR7 SEAP reporter)
Conditions: HEK-Blue TLR7 cells, 18 h incubation, Quanti-Blue, OD 620 nm, some values average of multiple measurements
Experimental: This procedure describes a method for assaying human TLR7 (hTLR7) and human TLR8 (hTLR8) agonist activity of the compounds disclosed herein. HEK-Blue™ TLR7 cells were added to each well of a 384-well tissue-culture plate (15,000 cells per well) and incubated 16-18 h at 37° C., 5% CO2. Compounds (100 nL) were dispensed into wells containing the HEK-Blue™ TLR cells and the treated cells were incubated at 37° C., 5% CO2. […] SLAP levels were measured using an Envision plate reader (OD=620 nm). […]
pEC50: −log10 of the molar value.
property.name: pEC50

• CCCCN(CCO)c1nc(N)nc2cn(Cc3ccc(CN4CC(CCO)C4)c4cccnc34)nc12 = 5.88
• CCCCN(CCO)c1nc(N)nc2cn(Cc3ccc(CN[C@H]4C[C@H](OC)C4)n4ccnc34)nc12 = 6.11
• CCCCN(CCO)c1nc(N)nc2cn(Cc3ccc(CN[C@H]4C[C@H](OC)C4)n4ncnc34)nc12 = 6.12
• CCCCN(CCO)c1nc(N)nc2cn(Cc3ccc(CN4CCCC4)cc3C(F)F)nc12 = 5.98
• COc1cc(CNC2CCC2)ccc1Cn1cc2nc(N)nc(N(CCO)CCCCF)c2n1 = 5.79

1: CCCCN(CCO)c1nc(N)nc2cn(Cc3ccc(CNC4CCC4)n4ncnc34)nc12
2: CCCCN(CCO)c1nc(N)nc2cn(Cc3ccc(CN[C@H]4CCOC[C@H]4C)cc3OC)nc12
3: CCCCN(CCO)c1nc(N)nc2cn(Cc3c(F)cc(C4=CCC(NC5CC6(COC6)C5)CC4)cc3OC)nc12 (stereo not shown)
INPUT: Rank the items in ascending order with respect to pEC50. Response field: labels, in requested order.
OUTPUT: 2, 3, 1
(2: 5.91, 3: 6.26, 1: 6.51)

1: CCCCN(CCO)c1nc(N)nc2cn(Cc3c(F)cc(CNC4CCOCC4)cc3F)nc12
2: CCCCN(CCO)c1nc(N)nc2cn(Cc3ccc(CNC(C)(C)CO)cc3OC)nc12
3: CCCCN(CCO)c1nc(N)nc2cn(Cc3c(F)cc(N4CCC(N[C@@H]5CCCOC5)CC4)cc3F)nc12
4: CCCCN(CCO)c1nc(N)nc2cn(Cc3c(F)cc(CN[C@H]4C[C@H](O)C4)cc3OC)nc12
INPUT: Rank the items in ascending order with respect to pEC50. Response field: labels, in requested order.
OUTPUT: 2, 4, 3, 1

a: CCCCN(CCO)c1nc(N)nc2cn(Cc3ccc(CNC(C)(C)C)c4c3OCCC4)nc12
b: CCCCN(CCO)c1nc(N)nc2cn(Cc3ccc(CNC4CCS(=O)(=O)CC4)c4scnc34)nc12
INPUT: Lab note: check whether a or b has the lower measured pEC50. Your answer should be the label attached to the chosen record.
OUTPUT: a

P: CCCCN(CCO)c1nc(N)nc2cn(Cc3c(F)cc(CNCCOC)cc3OC)nc12
Q: CCCCN(CCO)c1nc(N)nc2cn(Cc3c(F)cc(N4CCC(N[C@@H]5CCOC5)CC4)cc3F)nc12
INPUT: pEC50 comparison. Which is larger, P or Q ? Your answer should be the label attached to the chosen record.
OUTPUT: P
